parameter: melting point

The cases that follow already have their melting point on record.
q: What melting point value was documented for this compound, O=C(O)CS(=O)(=O)CCCCCCn1nc(-c2ccccc2)c(-c2ccccc2)c1-c1ccccc1 ?
a: 154 to 155 °C

q: Moving on to O=C(O)c1cnoc1-c1ccc(Cl)cc1Cl
a: 122 to 123 °C

q: Consider next the compound NC(=O)c1nc(-c2ccccc2)[nH]c1N in the same way.
a: 300 °C

Continuing:
q: Fill in: melting point of CN(C(=O)Nc1ccc(Cl)c(Cl)c1)C(Cl)C(Cl)(Cl)Cl (stereo unspecified) is ___
a: 132 to 140 °C

q: Now the same for CCCCOc1cc(C(=O)NCCCN2CCCCC2)cc(S(N)(=O)=O)c1Cc1ccccc1
a: 138 °C

q: And for Cc1cc(Oc2c(Cl)cc(C(F)(F)F)cc2Cl)nn1C(=O)OC(C)(C)C ?
a: 159 to 161 °C

q: Request: CC(=O)OC1CC2=CC=C3C4CCC(C(C)C=CC(C)C(C)C)C4(C)CCC3C2(C)C(OC(C)=O)C1 (stereo unspecified)
a: 128 to 130 °C

q: Could you do the same for CCC(CC)Oc1cc(C)nc(Nc2c(C)cc(C)cc2C)c1 , please?
a: 98 to 100 °C

q: Then what about the compound CC12CC(=O)C3C(CCC4CC(O)CCC43C)C1CCC2C(=O)OCC#N (stereo unspecified) ?
a: 142 to 146 °C

q: Can you check CCOc1ccc(C(CC(=O)OC)N2C(=O)c3ccc(N)cc3C2=O)cc1OCC (stereo unspecified) next?
a: 143 to 145 °C

q: And Cc1ccc(CN2C(=O)[C@@H](NC(=O)Cc3ccccc3)[C@H]2CO)c(C)c1 (relative stereo) ?
a: 152 to 154 °C

q: Same for O=c1n(-c2ccc(Cl)cc2)c(=O)n(SC(Cl)(Cl)Cl)n1SC(Cl)(Cl)Cl
a: 169 °C

q: Please do the same for CN1CCN(c2cccc3c2C[C@H](NC(=O)c2ccc(C(=O)N4CCOCC4)cc2)CC3)CC1 as well.
a: 124 to 127 °C

q: Repeat for the following compound: CC(=O)NCCCc1ccc(OC2CCc3cc(Cl)ccc32)cc1 (stereo unspecified)
a: 111 to 112 °C

q: Let us now turn to COC(=O)CC1CCc2cc(OC)ncc2C1O (stereo unspecified)
a: 92 to 96 °C

q: Next compound: CCCCCCCCCCCCS(=O)(=O)C(C#N)=C1C=C(N2CCCC2)CC(C)(C)C1
a: 114 to 115 °C
